# Target system: EPHB1 (UniProt P54762)
# Sequence (P54762 whole entry, looked up): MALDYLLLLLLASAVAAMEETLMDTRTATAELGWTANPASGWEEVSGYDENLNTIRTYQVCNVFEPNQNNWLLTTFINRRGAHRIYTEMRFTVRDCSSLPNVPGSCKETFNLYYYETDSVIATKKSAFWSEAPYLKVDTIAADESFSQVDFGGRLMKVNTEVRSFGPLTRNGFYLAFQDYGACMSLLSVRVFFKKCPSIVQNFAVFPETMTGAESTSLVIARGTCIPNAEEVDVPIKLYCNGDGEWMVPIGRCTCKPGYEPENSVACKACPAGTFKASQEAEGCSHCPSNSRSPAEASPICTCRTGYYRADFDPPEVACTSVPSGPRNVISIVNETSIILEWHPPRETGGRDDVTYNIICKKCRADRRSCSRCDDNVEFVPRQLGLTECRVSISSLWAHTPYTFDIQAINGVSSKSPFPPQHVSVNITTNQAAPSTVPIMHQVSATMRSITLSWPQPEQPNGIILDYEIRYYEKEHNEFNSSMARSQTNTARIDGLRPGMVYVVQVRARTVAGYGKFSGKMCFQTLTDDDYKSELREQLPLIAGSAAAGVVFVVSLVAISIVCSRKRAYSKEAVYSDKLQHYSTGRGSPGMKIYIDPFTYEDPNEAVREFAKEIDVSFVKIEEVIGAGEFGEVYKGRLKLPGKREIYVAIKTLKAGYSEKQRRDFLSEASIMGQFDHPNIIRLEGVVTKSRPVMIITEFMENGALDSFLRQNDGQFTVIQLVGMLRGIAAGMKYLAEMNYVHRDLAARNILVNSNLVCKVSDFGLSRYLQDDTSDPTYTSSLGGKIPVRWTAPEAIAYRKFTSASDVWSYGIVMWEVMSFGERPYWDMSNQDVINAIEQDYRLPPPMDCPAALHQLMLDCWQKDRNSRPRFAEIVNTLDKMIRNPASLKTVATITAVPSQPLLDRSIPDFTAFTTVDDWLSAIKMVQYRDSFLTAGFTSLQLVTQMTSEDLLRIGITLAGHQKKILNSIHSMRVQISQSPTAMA
# Method: phosphorylation enrichment, bacterial display (enrichment ratio); higher = better substrate or ligand; peptides without Tyr show the background;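 also: 11-residue human phosphosite peptides and single-mutation variants displayed on the E. coli surface, counted by deep sequencing, each peptide's frequency after selection divided by its frequency in the unselected input library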;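 also: frequency after pTyr selection over input frequency; kinase dosed for 20-30% of maximal phosphorylation in three min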
# label = bin(measured phosphorylation enrichment), where bins are low end (below 0.5), middle (0.5 to below 0.7), high end (0.7 or more)

These solved cases illustrate the format of a correct answer.
Q: Band assignment needed for GASRRYGSGVS [NEU1_Y242_W240R] please.
Ans: low end

Q: Band assignment needed for KILGRYYETSS [PAX2_Y72_G76S] please.
Ans: low end

Q: Band assignment needed for IGHHAYGDQFR [IDH1_Y135_R132H_YF] please.
Ans: low end

Q: Band assignment needed for VLALWYYYLTN [ZDHHC23_Y127_H132N] please.
Ans: high end

Q: Band assignment needed for FLENFYDLKKD [MMP3_Y42_YF] please.
Ans: low end

Q: Band assignment needed for VTAALYGCLFE [BTD_Y536_R538C_YF] please.
Ans: high end

More entries:
Q: Band assignment needed for TVEDHYFEGGI [TKT_Y563_YF] please.
Ans: high end

Q: Band assignment needed for TIQIMYGCDVG [HLA-A_Y123] please.
Ans: middle

All values here come from the supplement of paper PMC10065799.
